Value source: BindingDB's records for doi:10.7270/Q2BR8QM3

Molecular target: Bcl-2-like protein 2 (Homo sapiens, UniProt Q92843)
Sequence (Q92843 whole entry): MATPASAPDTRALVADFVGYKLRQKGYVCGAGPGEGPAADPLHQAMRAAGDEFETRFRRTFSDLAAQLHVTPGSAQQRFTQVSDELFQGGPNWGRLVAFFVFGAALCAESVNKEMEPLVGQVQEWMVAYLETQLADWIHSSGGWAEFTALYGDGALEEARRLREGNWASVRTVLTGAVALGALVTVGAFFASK
Assay: Bcl-W/Bim binding regulators – biochemical, multiplexed, bead-based flow cytometry, fluorescence, dose response (AID 1330)
pEC50: −log10 of the molar value.
We begin with a simple list: items and their reported pEC50.
measurement.name: pEC50

>>> value_reported("CNCc1ccccc1Sc1ccc(O)c(O)c1")
4.37
>>> value_reported("CC(=NNC(=O)c1cc(O)c(O)c(O)c1)c1ccc([N+](=O)[O-])cc1")
5.39
>>> value_reported("O=C(Nc1cccc(C(F)(F)F)c1)c1ccc2nc(-c3ccco3)c(-c3ccco3)nc2c1")
5.04
>>> value_reported("COc1cc(C2Nc3cccc4cccc(c34)N2)cc(OC)c1O")
5.49
>>> value_reported("CCN(CC)S(=O)(=O)c1cccc(C(=O)NN=Cc2ccc(O)c(O)c2O)c1")
5.29
>>> value_reported("O=C(NCc1ccccc1)c1ccc2nc(-c3ccco3)c(-c3ccco3)nc2c1")
5.22
>>> value_reported("CCOC(=O)C1CCN(C(=O)Nc2ccc3nc(-c4ccco4)c(-c4ccco4)nc3c2)CC1")
5.31
>>> value_reported("Cc1cc(N)ccc1N1CCCC1")
5.40
>>> value_reported("COc1cccc(CN=Nc2nn3cnnc3c3ccccc23)c1")
5.61
>>> value_reported("CN=c1scc(-c2cccs2)n1N=Cc1ccc(O)c(O)c1O")
5.30
>>> value_reported("Nc1c(C(=O)NC2CC2)sc2nc3c(c(-c4ccco4)c12)CC/C3=C/c1ccco1")
5.59
>>> value_reported("O=C(NCc1ccccn1)c1ccc2nc(-c3ccco3)c(-c3ccco3)nc2c1")
5.14
>>> value_reported("O=C1C=CC(C=NNC(=O)C(=Cc2ccc([N+](=O)[O-])cc2)NC(=O)c2ccccc2)C(O)=C1O (stereo not given)")
5.32
>>> value_reported("CCN1/C(=C/C(C)=C/c2sc3ccccc3[n+]2CC)Sc2ccccc21")
4.43
>>> value_reported("Cc1nc2ncccn2c1-c1csc(Nc2ccc(O)cc2)n1")
6.48
